Target of assay: wild-type Choristoneura fumiferana EcR (D, E and F domains) (Choristoneura fumiferana)
Format: cell-based
Assay conditions: R; WT-CtEcR, 3T3 Cells
Hi! Just check whether EC50 is below 70 nM. Below gives true (1), equal or above gives false (0).

{"Structure smiles": "Cc1cc(C)cc(C(=O)N(NC(=O)OCc2ccccc2)[C@H](CCCO)C(C)(C)C)c1", "Label": "false (0)"}
{"Structure smiles": "CCC[C@@H](N(NC(=O)c1ccc(OC)cc1)C(=O)c1cc(C)cc(C)c1)C(C)(C)C", "Label": "true (1)"}
{"Structure smiles": "CCC[C@@H](N(NC(=O)c1c(F)cccc1F)C(=O)c1cc(C)cc(C)c1)C(C)(C)C", "Label": "true (1)"}

input: Here's an entry: CCC[C@@H](N(NC(=O)c1cccc(OC)c1)C(=O)c1cc(C)cc(C)c1)C(C)(C)C . Is its EC50 below 70 nM?
output: false (0)

###

Target of assay: wild-type Choristoneura fumiferana EcR (D, E and F domains) (Choristoneura fumiferana, UniProt O77240)
Assay type: cell-based
Assay conditions: rac; WT-CtEcR, 3T3 Cells; relative to GS-E ligand
Assay metric: RMFI (relative maximum fold induction)
Answers are plain numbers.

{"Molecule": "CCCC(N(NC(=O)c1cccc(OC)c1CC)C(=O)c1cc(C)cc(C)c1)C(C)(C)C (racemic) [rac-2]", "RMFI (relative maximum fold induction)": 0.60}
{"Molecule": "CCCC(N(NC(=O)c1ccc(Cl)nc1)C(=O)c1cc(C)cc(C)c1)C(C)(C)C (racemic)", "RMFI (relative maximum fold induction)": 0.70}
{"Molecule": "CCCC(N(NC(=O)c1ccccc1OC)C(=O)c1cc(C)cc(C)c1)C(C)(C)C (racemic)", "RMFI (relative maximum fold induction)": 0.32}

Hi team, please reply with RMFI (relative maximum fold induction) for each item in this list.
1. CCCC(N(NC(=O)c1cccc(OC)c1C)C(=O)c1cc(OC)c(C)c(OC)c1)C(C)(C)C (racemic)
2. CCCC(N(NC(=O)c1ccc(OC)c(OC)c1)C(=O)c1cc(C)cc(C)c1)C(C)(C)C (racemic)
3. CCCC(N(NC(=O)c1cccs1)C(=O)c1cc(C)cc(C)c1)C(C)(C)C (racemic)
4. CCCC(N(NC(=O)c1ccc2ccccc2c1)C(=O)c1cc(C)cc(C)c1)C(C)(C)C (racemic)
5. CCCC(N(NC(=O)c1ccc(Cl)cc1)C(=O)c1cc(C)cc(C)c1)C(C)(C)C (racemic)

output:
[0.82, 0.25, 0.52, 0.44, 0.46]

###

Target of assay: [V390I/Y410E/E274V]-CfEcR (Choristoneura fumiferana, UniProt O77240)
Construct: assay construct b835
Type: cell-based
Assay conditions: rac, 3T3 Cells, read-out: EC50
Kindly state EC50 for each of the entries shown.
One number for each entry, in nM.

Hi team, please reply with EC50 for each item in this list.
1. CCCC(N(NC(=O)c1ccc2ccccc2c1)C(=O)c1cc(C)cc(C)c1)C(C)(C)C (racemic) [rac-24]
2. CCCC(N(NC(=O)c1cccc2ccccc12)C(=O)c1cc(C)cc(C)c1)C(C)(C)C (racemic) [rac-23]
3. C=CCC(CCc1ccccc1)N(NC(=O)c1ccc(CC)cc1)C(=O)c1cc(C)cc(C)c1 (racemic) [rac-62]

output:
1: 61; 2: 66; 3: 2110
